Origin of values: patent US9382254B2

# TEST TARGET: CFTR-G1349D (Homo sapiens, UniProt P13569, G1349D)
# Construct: expressed in transfected cells
# Sequence (P13569 whole entry G1349D): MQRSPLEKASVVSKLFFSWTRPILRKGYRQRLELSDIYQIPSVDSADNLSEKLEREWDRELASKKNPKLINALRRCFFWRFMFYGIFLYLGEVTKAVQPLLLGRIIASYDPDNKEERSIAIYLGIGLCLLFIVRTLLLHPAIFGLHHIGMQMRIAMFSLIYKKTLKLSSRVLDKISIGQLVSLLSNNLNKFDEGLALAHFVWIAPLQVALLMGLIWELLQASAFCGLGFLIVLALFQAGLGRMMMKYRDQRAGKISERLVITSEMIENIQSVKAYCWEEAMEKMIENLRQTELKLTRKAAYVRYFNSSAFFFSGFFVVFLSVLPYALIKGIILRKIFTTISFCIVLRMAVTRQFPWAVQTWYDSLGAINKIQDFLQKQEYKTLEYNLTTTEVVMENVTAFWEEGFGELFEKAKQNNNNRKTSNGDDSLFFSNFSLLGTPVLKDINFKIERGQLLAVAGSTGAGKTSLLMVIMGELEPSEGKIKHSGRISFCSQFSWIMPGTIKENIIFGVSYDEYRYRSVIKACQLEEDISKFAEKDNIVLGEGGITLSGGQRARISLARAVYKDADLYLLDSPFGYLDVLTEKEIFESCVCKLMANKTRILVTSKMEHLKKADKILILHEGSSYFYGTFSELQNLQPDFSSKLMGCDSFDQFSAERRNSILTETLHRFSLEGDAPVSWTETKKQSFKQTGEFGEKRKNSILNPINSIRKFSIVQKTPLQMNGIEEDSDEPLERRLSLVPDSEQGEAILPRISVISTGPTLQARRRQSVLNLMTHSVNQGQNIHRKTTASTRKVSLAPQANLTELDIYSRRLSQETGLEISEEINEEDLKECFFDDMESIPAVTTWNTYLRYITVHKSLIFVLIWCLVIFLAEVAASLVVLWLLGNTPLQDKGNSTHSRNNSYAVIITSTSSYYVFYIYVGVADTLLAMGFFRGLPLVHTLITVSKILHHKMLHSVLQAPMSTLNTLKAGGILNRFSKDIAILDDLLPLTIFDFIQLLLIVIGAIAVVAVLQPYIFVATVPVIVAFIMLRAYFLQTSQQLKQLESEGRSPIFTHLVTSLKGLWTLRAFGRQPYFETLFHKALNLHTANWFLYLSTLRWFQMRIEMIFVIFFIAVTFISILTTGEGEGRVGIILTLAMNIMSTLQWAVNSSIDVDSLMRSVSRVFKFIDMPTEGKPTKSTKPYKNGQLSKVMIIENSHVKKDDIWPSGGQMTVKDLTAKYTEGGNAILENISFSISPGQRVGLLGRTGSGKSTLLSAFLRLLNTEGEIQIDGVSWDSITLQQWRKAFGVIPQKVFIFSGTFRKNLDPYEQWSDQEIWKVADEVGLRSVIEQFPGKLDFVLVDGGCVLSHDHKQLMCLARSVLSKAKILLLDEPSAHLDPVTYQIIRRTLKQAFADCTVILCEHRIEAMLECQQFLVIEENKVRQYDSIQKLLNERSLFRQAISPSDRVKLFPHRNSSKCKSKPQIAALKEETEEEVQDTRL
# EXPERIMENT DESCRIPTION: YFP-halide influx assay for the CFTR-G1349D
# Assay type: cell-based
Assignment: determine reported pEC50 for the given compounds.
Keep it numeric: pEC50 is minus log10 of the concentration in mol/L.

Value of pEC50 reported for the compound "COc1ccc(OC(F)(F)F)c(S(=O)(=O)c2cc(C(N)=O)c(NC(=O)C(C)(C)O)s2)c1" is 7.50

Value of pEC50 reported for the compound CC(CO)C(=O)Nc1sc(S(=O)(=O)c2ccc(C(F)(F)F)cc2)cc1C(N)=O (centres unmarked) is 6.71

Value of pEC50 reported for the compound "CC(C)(O)C(=O)Nc1sc(S(=O)(=O)c2cnc(C(F)(F)F)cn2)cc1C(N)=O" is 6.38

Value of pEC50 reported for the compound "NC(=O)c1cc(S(=O)(=O)c2ccccc2)sc1NC(=O)c1cc[nH]n1" is 6.82

Value of pEC50 reported for the compound CC(O)C(=O)Nc1sc(S(=O)(=O)c2ccc(F)cc2C(F)(F)F)cc1C(N)=O (centres unmarked) is 5.59

Value of pEC50 reported for the compound CC(O)C(=O)Nc1sc(S(=O)(=O)c2ccc(C(F)(F)F)cc2F)cc1C(N)=O (centres unmarked) is 7.00

Value of pEC50 reported for the compound "COc1cc(C)cc(S(=O)(=O)c2cc(C(N)=O)c(NC(=O)C(C)(C)O)s2)c1" is 6.45

Value of pEC50 reported for the compound "CC(C)(O)C(=O)Nc1sc(S(=O)(=O)c2cc(C(F)(F)F)ncc2Cl)cc1C(N)=O" is 6.53

---

# TEST TARGET: CFTR ΔF508 mutant (Homo sapiens, UniProt P13569, DEL508-508)
# Construct: expressed in transfected cells; host or cells: CFBE41o- (adenoviral transduction)
# Sequence (P13569 with tags, fused parts or gaps DEL508-508): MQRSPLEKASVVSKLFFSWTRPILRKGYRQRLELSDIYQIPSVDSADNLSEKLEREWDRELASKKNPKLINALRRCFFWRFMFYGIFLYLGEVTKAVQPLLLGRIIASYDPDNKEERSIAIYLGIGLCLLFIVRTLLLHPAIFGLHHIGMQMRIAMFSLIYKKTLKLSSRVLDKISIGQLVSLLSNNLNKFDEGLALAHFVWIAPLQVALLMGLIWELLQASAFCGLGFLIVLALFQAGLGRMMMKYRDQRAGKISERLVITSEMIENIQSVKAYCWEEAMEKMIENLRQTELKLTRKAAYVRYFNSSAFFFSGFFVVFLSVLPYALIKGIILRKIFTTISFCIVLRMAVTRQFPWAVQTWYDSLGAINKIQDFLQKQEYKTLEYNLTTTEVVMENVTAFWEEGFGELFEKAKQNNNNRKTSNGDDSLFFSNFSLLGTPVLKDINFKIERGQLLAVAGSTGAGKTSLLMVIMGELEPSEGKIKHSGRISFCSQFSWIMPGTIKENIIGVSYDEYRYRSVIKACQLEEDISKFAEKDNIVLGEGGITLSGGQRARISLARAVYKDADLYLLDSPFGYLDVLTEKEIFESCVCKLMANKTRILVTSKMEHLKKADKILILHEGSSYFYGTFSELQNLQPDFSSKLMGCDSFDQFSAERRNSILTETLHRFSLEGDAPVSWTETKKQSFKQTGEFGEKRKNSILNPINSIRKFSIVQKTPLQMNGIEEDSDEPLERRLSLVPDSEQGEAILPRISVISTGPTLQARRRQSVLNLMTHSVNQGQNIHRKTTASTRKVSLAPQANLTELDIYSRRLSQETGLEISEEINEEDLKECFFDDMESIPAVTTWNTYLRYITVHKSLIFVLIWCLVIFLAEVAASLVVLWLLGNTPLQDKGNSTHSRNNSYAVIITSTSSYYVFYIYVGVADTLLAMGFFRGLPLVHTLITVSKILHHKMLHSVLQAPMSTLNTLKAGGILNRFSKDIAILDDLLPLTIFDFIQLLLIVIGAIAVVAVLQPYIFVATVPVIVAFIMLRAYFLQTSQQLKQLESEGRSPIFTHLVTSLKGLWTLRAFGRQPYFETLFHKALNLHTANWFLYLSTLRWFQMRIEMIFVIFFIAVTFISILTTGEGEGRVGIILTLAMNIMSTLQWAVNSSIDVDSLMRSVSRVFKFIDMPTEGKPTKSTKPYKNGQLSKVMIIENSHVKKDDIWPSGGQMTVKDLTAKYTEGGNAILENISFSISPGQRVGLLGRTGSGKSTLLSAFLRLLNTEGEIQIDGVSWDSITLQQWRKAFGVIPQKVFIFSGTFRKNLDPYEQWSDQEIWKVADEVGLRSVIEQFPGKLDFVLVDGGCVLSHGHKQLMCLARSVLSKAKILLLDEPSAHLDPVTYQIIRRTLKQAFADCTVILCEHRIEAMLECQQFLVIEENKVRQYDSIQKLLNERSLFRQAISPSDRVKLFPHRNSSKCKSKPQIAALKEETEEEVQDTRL
# EXPERIMENT DESCRIPTION: YFP-halide influx assay for the CFTR-ΔF508 mutation (384 well, FDSS/μCell)
# Format: cell-based
# TEST CONTEXT: CFBE41o- cells, CFTR-ΔF508, 1×D-PBS, fluorescence after 36 seconds
Assignment: determine reported EC50 for the given molecules.
Give the number; µM is assumed, so skip it.

Lab note: molecule CN(Cc1ccc(F)cc1)S(=O)(=O)c1cc(C(N)=O)c(NC(=O)C(C)(C)O)s1 [Compound 305] tested on CFTR ΔF508 mutant (Homo sapiens, UniProt P13569, DEL508-508); recorded EC50 was 0.0239

Lab note: molecule NC(=O)c1cc(S(=O)(=O)c2cccc(F)c2)sc1NC(=O)C1(O)CC1 [Compound 227] tested on CFTR ΔF508 mutant (Homo sapiens, UniProt P13569, DEL508-508); recorded EC50 was 0.0393

Lab note: molecule NC(=O)c1cc(S(=O)(=O)c2ccc(F)cc2F)sc1NC(=O)C1(O)CC1 [Compound 256] tested on CFTR ΔF508 mutant (Homo sapiens, UniProt P13569, DEL508-508); recorded EC50 was 0.0231

Lab note: molecule NC(=O)c1cc(S(=O)(=O)c2ccc(F)cc2)sc1NC(=O)c1ccccc1O [Compound 223] tested on CFTR ΔF508 mutant (Homo sapiens, UniProt P13569, DEL508-508); recorded EC50 was 0.0621

Lab note: molecule CC(C)(O)C(=O)Nc1sc(S(=O)(=O)c2ccc(F)cc2OC(F)F)cc1C(N)=O [Compound 283] tested on CFTR ΔF508 mutant (Homo sapiens, UniProt P13569, DEL508-508); recorded EC50 was 0.0696

Lab note: molecule CC(O)C(=O)Nc1sc(S(=O)(=O)c2ccc(F)cc2Cl)cc1C(N)=O (single isomer, unassigned; enantiomer 1) [Compound 353] tested on CFTR ΔF508 mutant (Homo sapiens, UniProt P13569, DEL508-508); recorded EC50 was 0.0108

Lab note: molecule CC(C)(O)C(=O)Nc1sc(S(=O)(=O)c2ccc(OC(F)(F)F)cc2)cc1C(N)=O [Compound 270] tested on CFTR ΔF508 mutant (Homo sapiens, UniProt P13569, DEL508-508); recorded EC50 was 0.0183

Lab note: molecule CC(C)(O)C(=O)Nc1sc(S(=O)(=O)c2cc(Cl)ccc2OC(F)F)cc1C(N)=O [Compound 401] tested on CFTR ΔF508 mutant (Homo sapiens, UniProt P13569, DEL508-508); recorded EC50 was 0.00653

Lab note: molecule CC1(C)CN(S(=O)(=O)c2cc(C(N)=O)c(NC(=O)c3ccccc3F)s2)C1 [Compound 183] tested on CFTR ΔF508 mutant (Homo sapiens, UniProt P13569, DEL508-508); recorded EC50 was 0.0127

Lab note: molecule CC(C)(O)C(=O)Nc1sc(S(=O)(=O)c2nccnc2C(F)(F)F)cc1C(N)=O [Compound 417] tested on CFTR ΔF508 mutant (Homo sapiens, UniProt P13569, DEL508-508); recorded EC50 was 0.147

Lab note: molecule NC(=O)c1cc(S(=O)(=O)c2ccc(F)c(F)c2)sc1NC(=O)c1cc[nH]n1 [Compound 118] tested on CFTR ΔF508 mutant (Homo sapiens, UniProt P13569, DEL508-508); recorded EC50 was 0.0096

Lab note: molecule CC(O)C(=O)Nc1sc(S(=O)(=O)c2ccc(F)cc2)cc1C(N)=O (stereo not shown) [Compound 248] tested on CFTR ΔF508 mutant (Homo sapiens, UniProt P13569, DEL508-508); recorded EC50 was 0.0701

Lab note: molecule CC(CO)C(=O)Nc1sc(S(=O)(=O)c2ccc(OC(F)(F)F)cn2)cc1C(N)=O (stereo not shown) [Compound 392] tested on CFTR ΔF508 mutant (Homo sapiens, UniProt P13569, DEL508-508); recorded EC50 was 0.0846

Lab note: molecule CC(C)(C)c1cc(C(=O)Nc2sc(S(=O)(=O)N3CCC(F)(F)CC3)cc2C(N)=O)n[nH]1 [Compound 142] tested on CFTR ΔF508 mutant (Homo sapiens, UniProt P13569, DEL508-508); recorded EC50 was 0.294

Lab note: molecule NC(=O)c1cc(S(=O)(=O)N2CCC(F)(F)CC2)sc1NC(=O)C1(O)CC1 [Compound 139] tested on CFTR ΔF508 mutant (Homo sapiens, UniProt P13569, DEL508-508); recorded EC50 was 0.0555

Lab note: molecule NC(=O)c1cc(S(=O)(=O)N(Cc2ccc(F)cc2)C2CC2)sc1NC(=O)c1cc[nH]n1 [Compound 191] tested on CFTR ΔF508 mutant (Homo sapiens, UniProt P13569, DEL508-508); recorded EC50 was 0.197

---

Assignment: determine reported pEC50 for the given compounds.
# TEST TARGET: CFTR ΔF508 mutant (Homo sapiens, UniProt P13569, DEL508-508)
# Construct: expressed in transfected cells; host or cells: CFBE41o- (adenoviral transduction)
# EXPERIMENT DESCRIPTION: YFP-halide influx assay for the CFTR-ΔF508 mutation, gluconate buffer
# Assay type: cell-based
# TEST CONTEXT: CFBE41o- cells, forskolin 10.67 μM
# Description: The YFP halide influx assay measures the functionality of the cystic fibrosis Transmembrane Conductance regulator (CFTR) channels in the cystic fibrosis bronchial epithelium cell line CFBE41o-. […] It makes use of the observation that the yellow fluorescent protein (YFP) variant YFP H148Q, I152L has its fluorescence substantially quenched by halide ions like Cl^− and I^−. […] The I^−-induced quenching of fluorescence is recorded immediately after injection of I^− for 7 seconds. […]
Keep it numeric: pEC50 is minus log10 of the concentration in mol/L.

Value of pEC50 reported for the compound "Cc1cc(F)ccc1C(=O)Nc1sc(S(=O)(=O)N2CCOCC2)cc1C(N)=O" is 6.68

Value of pEC50 reported for the compound "NC(=O)c1cc(S(=O)(=O)N2CC3(COC3)C2)sc1NC(=O)c1ccccc1F" is 5.68

Value of pEC50 reported for the compound "CC(C)(C)c1ccc(C(=O)Nc2sc(S(=O)(=O)N3CCOCC3)cc2C(N)=O)cc1" is 6.07

Value of pEC50 reported for the compound "CC(C)(O)C1CCN(S(=O)(=O)c2cc(C(N)=O)c(NC(=O)c3ccccc3F)s2)CC1" is 6.29

Value of pEC50 reported for the compound "CN(C1CC1)S(=O)(=O)c1cc(C(N)=O)c(NC(=O)c2cc[nH]n2)s1" is 7.13

Value of pEC50 reported for the compound "Cc1ccccc1S(=O)(=O)c1cc(C(N)=O)c(NC(=O)c2ccccc2F)s1" is 6.91

Value of pEC50 reported for the compound "CN(Cc1ccc(F)cc1)S(=O)(=O)c1cc(C(N)=O)c(NC(=O)c2cc[nH]n2)s1" is 7.71
